The measurements presented in this section are drawn from ChEMBL document CHEMBL1127925.

molecules and their reported MIC
# Tested on: Staphylococcus aureus
# protocolText: In vitro antibacterial activity against Staphylococcus aureus A20700 was determined
# Format: functional
Answer shape: numeric part, then the unit.

Below are worked cases with known answers.
COC1C(OC(=O)c2ccco2)C(O)C(Oc2ccc3c(O)c(NC(=O)c4ccccc4)c(=O)oc3c2C)OC1(C)C (stereo unspecified) : 8 µg/mL
COC1C(OC(=O)c2c(C)ncn2Cc2ccccc2)C(O)C(Oc2ccc3c(O)c(NC(=O)c4ccccc4)c(=O)oc3c2C)OC1(C)C (stereo unspecified) : 4 µg/mL

Tell me the measured MIC of COC1C(OC(=O)c2[nH]cnc2C)C(O)C(Oc2ccc3c(O)c(NC(=O)c4ccccc4)c(=O)oc3c2C)OC1(C)C.Cc1ccc(S(=O)(=O)O)cc1 (stereo unspecified) , please.
16 µg/mL

Looking for the measured MIC of COC1C(OC(=O)c2ccc(C)s2)C(O)C(Oc2ccc3c(O)c(NC(=O)c4ccccc4)c(=O)oc3c2C)OC1(C)C (stereo unspecified) , can you help?
4 µg/mL

// MIC lookup, key: COC1C(OC(=O)c2ccc(C)[nH]2)C(O)C(Oc2ccc3c(O)c(NC(=O)c4ccccc4)c(=O)oc3c2C)OC1(C)C (stereo unspecified)
0.13 µg/mL

Given the entry COC1C(OC(=O)c2cccn2C)C(O)C(Oc2ccc3c(O)c(NC(=O)c4ccccc4)c(=O)oc3c2C)OC1(C)C (stereo unspecified) , report its measured MIC.
8 µg/mL
